test system: Borrelia spielmanii; assay: Antimicrobial activity against Borrelia spielmanii isolate PC-Eq17 after 72 hrs by colorimetric assay; assay type: functional; conditions: Borreliella spielmanii, isolate PC-Eq17, 72 h
Reported MBC is given for each of the following compounds.

- compound: "CO/N=C(\\C(=O)N[C@@H]1C(=O)N2C(C(=O)O)=C(CSc3nc(=O)c(O)nn3C)CS[C@H]12)c1csc(N)n1 [CEFTRIAXONE]"
  target: "Borrelia spielmanii"
  readout unit: "µg/mL"
  MBC: 2
- compound: "C[C@H]1c2cccc(O)c2C(=O)C2=C(O)[C@]3(O)C(=O)C(C(N)=O)=C(O)[C@@H](N(C)C)[C@@H]3[C@@H](O)[C@@H]21.O [DOXYCYCLINE]"
  target: "Borrelia spielmanii"
  readout unit: "µg/mL"
  MBC: 16
- compound: "CC[C@H]1OC(=O)[C@H](C)[C@@H](O[C@H]2C[C@@](C)(OC)[C@@H](O)[C@H](C)O2)[C@H](C)[C@@H](O[C@@H]2O[C@H](C)C[C@H](N(C)C)[C@H]2O)[C@](C)(O)C[C@@H](C)C(=O)[C@H](C)[C@@H](O)[C@]1(C)O [ERYTHROMYCIN]"
  target: "Borrelia spielmanii"
  readout unit: "µg/mL"
  MBC: 4

* * *

tested on: Borrelia spielmanii; experiment: Antimicrobial activity against Borrelia spielmanii isolate TIsar3 after 72 hrs by colorimetric assay; format: functional; settings: Borreliella spielmanii, isolate TIsar3, 72 h
// classify: if (MIC < 0.1 µg/mL) 1.0 else 0.0

- structure as smiles: "CC[C@H]1OC(=O)[C@H](C)[C@@H](O[C@H]2C[C@@](C)(OC)[C@@H](O)[C@H](C)O2)[C@H](C)[C@@H](O[C@@H]2O[C@H](C)C[C@H](N(C)C)[C@H]2O)[C@](C)(O)C[C@@H](C)C(=O)[C@H](C)[C@@H](O)[C@]1(C)O"
  classification: 1.0
- structure as smiles: "CC1(C)S[C@@H]2[C@H](NC(=O)[C@H](N)c3ccc(O)cc3)C(=O)N2[C@H]1C(=O)O"
  classification: 0.0
- structure as smiles: "C[C@H]1c2cccc(O)c2C(=O)C2=C(O)[C@]3(O)C(=O)C(C(N)=O)=C(O)[C@@H](N(C)C)[C@@H]3[C@@H](O)[C@@H]21.O"
  classification: 0.0
- structure as smiles: "CO/N=C(\\C(=O)N[C@@H]1C(=O)N2C(C(=O)O)=C(CSc3nc(=O)c(O)nn3C)CS[C@H]12)c1csc(N)n1"
  classification: 1.0
- structure as smiles: "CO/N=C(\\C(=O)N[C@@H]1C(=O)N2C(C(=O)O)=C(COC(N)=O)CS[C@H]12)c1ccco1"
  classification: 0.0
- structure as smiles: "CC[C@H]1OC(=O)[C@H](C)[C@@H](O[C@H]2C[C@@](C)(OC)[C@@H](O)[C@H](C)O2)[C@H](C)[C@@H](O[C@@H]2O[C@H](C)C[C@H](N(C)C)[C@H]2O)[C@](C)(OC)C[C@@H](C)C(=O)[C@H](C)[C@@H](O)[C@]1(C)O"
  classification: 1.0

* * *

system: Borrelia; assay: Antimicrobial activity against Borrelia clinical isolate after 72 hrs by colorimetric assay; assay type: functional; conditions: Borrelia, 72 h
Reported log10 of MIC90 is given for each of the following compounds.
measurement name: log10 of MIC90 (log10 of the value in µg/mL)

- structure as smiles: "CC1(C)S[C@@H]2[C@H](NC(=O)[C@H](N)c3ccc(O)cc3)C(=O)N2[C@H]1C(=O)O"
  log10 of MIC90: 0.30
- structure as smiles: "CC[C@H]1OC(=O)[C@H](C)[C@@H](O[C@H]2C[C@@](C)(OC)[C@@H](O)[C@H](C)O2)[C@H](C)[C@@H](O[C@@H]2O[C@H](C)C[C@H](N(C)C)[C@H]2O)[C@](C)(OC)C[C@@H](C)C(=O)[C@H](C)[C@@H](O)[C@]1(C)O"
  log10 of MIC90: -2.10
- structure as smiles: "C[C@H]1c2cccc(O)c2C(=O)C2=C(O)[C@]3(O)C(=O)C(C(N)=O)=C(O)[C@@H](N(C)C)[C@@H]3[C@@H](O)[C@@H]21.O"
  log10 of MIC90: -0.60
- structure as smiles: "CC[C@H]1OC(=O)[C@H](C)[C@@H](O[C@H]2C[C@@](C)(OC)[C@@H](O)[C@H](C)O2)[C@H](C)[C@@H](O[C@@H]2O[C@H](C)C[C@H](N(C)C)[C@H]2O)[C@](C)(O)C[C@@H](C)C(=O)[C@H](C)[C@@H](O)[C@]1(C)O"
  log10 of MIC90: -1.51
- structure as smiles: "CO/N=C(\\C(=O)N[C@@H]1C(=O)N2C(C(=O)O)=C(CSc3nc(=O)c(O)nn3C)CS[C@H]12)c1csc(N)n1"
  log10 of MIC90: -1.20
- structure as smiles: "CO/N=C(\\C(=O)N[C@@H]1C(=O)N2C(C(=O)O)=C(COC(N)=O)CS[C@H]12)c1ccco1"
  log10 of MIC90: -0.60
